# Protocol Details: Acute toxicity in mice (LD50, Litchfield-Wilcoxon test)
# Design: species or system Swiss I.C.R. albino mice
# Condition Details: mouse, in vivo, ip; intraperitoneal, deaths counted 48 hours after treatment, both sexes, fasted 24 hours

| Molecule | Endpoint Unit | LD50 at 48 h |
| --- | --- | --- |
| Cc1ccnc(C(O)c2ccco2)c1C (stereo not shown) | mg/kg | 309 |
